Parameter pIC50, tested on Cyclin-dependent kinase 2 (Homo sapiens, UniProt P24941), listed per item.
Quick note: pIC50 values are minus log10 of concentrations in mol/L.

Missing value: pIC50, Cyclin-dependent kinase 2 (Homo sapiens, UniProt P24941), entry `CC(C)c1cc2c(N/N=C\c3ccncc3)ncnc2s1` . Fill in?
5.95

Field entry: `CC(C)c1cc2c(N/N=C\c3ccccc3)ncnc2s1`
5.53

Likewise for `CC(C)c1cc2c(N/N=C\c3ccco3)ncnc2s1` ?
5.72

Repeat with `CC(C)c1cc2c(N/N=C\c3cccs3)ncnc2s1`
5.94

Also `Cc1cccc(/C=N\Nc2ncnc3sc(C(C)(C)C)cc23)n1` ?
4.67

Attribution: ChEMBL document CHEMBL1149082
